Recorded EC50 by entry
TESTED ON: NK-1 receptors (Cavia porcellus, UniProt P30547)
Construct: isolated ring preparations, kept in an oxygenated nutrient solution, of the aortas of Pirbright-White guinea pigs
Sequence (P30547 whole entry): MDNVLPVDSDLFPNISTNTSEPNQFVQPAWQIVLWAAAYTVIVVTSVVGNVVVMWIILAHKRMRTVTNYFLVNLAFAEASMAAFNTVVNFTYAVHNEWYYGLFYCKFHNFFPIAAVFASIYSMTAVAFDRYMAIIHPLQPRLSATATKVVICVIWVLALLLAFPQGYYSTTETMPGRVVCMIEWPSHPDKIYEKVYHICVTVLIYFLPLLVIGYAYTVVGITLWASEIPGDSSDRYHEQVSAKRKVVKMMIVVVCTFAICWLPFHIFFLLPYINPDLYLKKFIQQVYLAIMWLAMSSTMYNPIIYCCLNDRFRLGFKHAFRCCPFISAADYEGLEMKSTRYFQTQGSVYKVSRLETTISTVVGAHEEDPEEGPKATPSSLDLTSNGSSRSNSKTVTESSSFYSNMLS
ASSAY SUMMARY: Functional NK-1 antagonism on isolated guinea pig aorta rings (inhibition of Substance P-induced relaxation)
CONDITION LABEL: half maximum inhibition of relaxation of tone caused by 0.01 μmol Substance P; phenylephrine-tonicised guinea pig aorta
Description: The action antagonistic to NK-1 receptors of the test substances was measured in vitro on isolated ring preparations, kept in an oxygenated nutrient solution, of the aortas of Pirbright-White guinea pigs. The inhibition by the test substances of the relaxation of tone of the aorta preparations, caused after stimulation with the NK-1 agonist Substance P, was determined. […]
A bare number is not enough; add the unit after it.

Below are worked cases with known answers.
>  <SMILES STR>
O=C(c1cc(C(F)(F)F)cc(C(F)(F)F)c1)N1CCN(Cc2n[nH]nc2CN2CCNCC2)C[C@H]1Cc1c[nH]c2ccccc12

>  <TESTED ON>
NK-1 receptors (Cavia porcellus, UniProt P30547)

>  <RECORDED VALUE>
0.794 nM

$$$$
>  <SMILES STR>
CN(C)Cc1n[nH]nc1CN1CCN(C(=O)c2cc(C(F)(F)F)cc(C(F)(F)F)c2)[C@H](Cc2c[nH]c3ccccc23)C1

>  <TESTED ON>
NK-1 receptors (Cavia porcellus, UniProt P30547)

>  <RECORDED VALUE>
2.51 nM

$$$$

Shift focus to the following entry.
*Q* Value wanted: EC50 (NK-1 receptors (Cavia porcellus, UniProt P30547)) of entry CCN(CC)Cc1n[nH]nc1CN1CCN(C(=O)c2cc(C(F)(F)F)cc(C(F)(F)F)c2)[C@H](Cc2c[nH]c3ccccc23)C1
*A* 2 nM
